Recorded values, source paper PMC9352680.

Readings of Kd for the listed binders
- targetOrSystem: T1, PUF4 RNA-binding domain (Saccharomyces cerevisiae, UniProt P25339 537-888)
- T1 sequence: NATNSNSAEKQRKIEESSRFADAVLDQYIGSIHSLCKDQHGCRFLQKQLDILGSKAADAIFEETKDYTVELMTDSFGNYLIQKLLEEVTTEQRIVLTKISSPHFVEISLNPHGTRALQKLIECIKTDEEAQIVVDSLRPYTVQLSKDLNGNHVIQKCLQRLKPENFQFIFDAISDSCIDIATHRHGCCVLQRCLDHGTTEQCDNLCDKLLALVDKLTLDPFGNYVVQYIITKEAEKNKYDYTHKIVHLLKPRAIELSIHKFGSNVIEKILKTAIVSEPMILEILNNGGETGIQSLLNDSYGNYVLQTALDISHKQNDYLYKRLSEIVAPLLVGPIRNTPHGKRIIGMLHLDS
- methodDescription: Mg; RNA-MaP; 20 mM Na-HEPES pH 7.4, 30 mM KOAc, 0.75 mM MgCl2, 0.1% Tween-20, 5% glycerol, 0.1 mg/mL BSA, 2 mM DTT; 25 C; 0.0125-409.6 nM protein
- conditionSet: tags: N-His6-TEV cleaved; C-SNAP kept, Cy3B-labelled; label: tethered on chip by stalled RNA polymerase

[
  {
    "binder": "UCUCUUGUACACUUAUUACCUCUCUU (ssRNA) [Id_ii_S1_P5E.4_K5.3_C5.2_[C-2G]_H5.3_A5.1_F5.1_T5.2_[T11C]_[A12C]]",
    "resultUnit": "nM",
    "inequalitySymbol": "=",
    "Kd": 3.22
  },
  {
    "binder": "ACAAACUAUAGUAUUAACAAAC (ssRNA) [Ib_S3_P5E.1_K5.1_C5.1_H5.1_[G2A]_A5.1_[T5G]_F5.1_T5.1]",
    "resultUnit": "nM",
    "inequalitySymbol": ">",
    "Kd": 2300
  },
  {
    "binder": "UCUCUUCCUUUUGUAUAUAUAUCUCUU (ssRNA) [Ie_S1_P3E.2_K3.1_C3.2_[+-2CTT]_H3.1_A3.1_F3.1_T3.2]",
    "resultUnit": "nM",
    "inequalitySymbol": "=",
    "Kd": 5.14
  },
  {
    "binder": "Ic_S2_P4E.1_K4.1_C4.1_H4.1_A4.1_[A6T]_F4.1_[T8C]_T4.1 (ssRNA) RNA: UUUGAUUAAUAUGAUAUCGUUCUUUCUUGUAUUUCAUUCUUUCUCGAUAUCAUAUUAAUCUUU",
    "resultUnit": "nM",
    "inequalitySymbol": "=",
    "Kd": 104
  },
  {
    "binder": "Ie_S2_P5E.1_K5.1_C5.1_H5.1_A5.1_[+5TCTCT]_F5.1_T5.1 (ssRNA) RNA: UUUGAUUAAUAUGAUAUCGUUCUUUCUUGUAUUCUCUUAUUAUUCUUUCUCGAUAUCAUAUUAAUCUUU",
    "resultUnit": "nM",
    "inequalitySymbol": "=",
    "Kd": 9.67
  },
  {
    "binder": "UCUCUUCCCUUGUAUAUAUAUCUCUU (ssRNA) [Ie_S1_P3E.2_K3.1_C3.2_[+-2CC]_H3.1_A3.1_F3.1_T3.2]",
    "resultUnit": "nM",
    "inequalitySymbol": "=",
    "Kd": 7.06
  }
]
